Give measured IC50 for each item. Keep answers brief.
Return type: number; implicit unit µM.

So the reported IC50 for `CC(C)(C)[C@H]1CCc2[nH]nc(C(=O)NC3CC3)c2C1` , on UniProtKB P49841, turned out to be 9.34

So the reported IC50 for `COc1cccc(-n2c(=S)sc3c(=O)[nH]c(SCC(=O)Nc4cccc(Cl)c4)nc32)c1` , on UniProtKB P49841, turned out to be 15.5
